tested on: Mammaliicoccus sciuri; experiment: Bactericidal activity against methicillin-susceptible coagulase-negative Staphylococcus sciuri after 24 hrs by plate counting method; format: functional
recorded-endpoint: MBC50
State the result as a value with its unit after it.

Data request: Need MBC50, item `CC(=O)NC[C@H]1CN(c2ccc(N3CCOCC3)c(F)c2)C(=O)O1`
Data returned: 2 µg/mL

Data request: For the molecule `COc1cc(O)c(C(=O)[C@@H]2[C@H](CC=C(C)C)C(C)=CC[C@H]2c2ccccc2)c(O)c1` , what MBC50 is on record?
Data returned: 1 µg/mL

Data request: # input molecule: `CN(C)[C@@H]1C(O)=C(C(N)=O)C(=O)[C@@]2(O)C(O)=C3C(=O)c4c(O)cccc4[C@@](C)(O)[C@H]3C[C@@H]12` ; wanted: its MBC50
Data returned: 8 µg/mL

Data request: Bench note: what MBC50 did `CN[C@H](CC(C)C)C(=O)N[C@H]1C(=O)N[C@@H](CC(N)=O)C(=O)N[C@H]2C(=O)N[C@H]3C(=O)N[C@H](C(=O)N[C@H](C(=O)O)c4cc(O)cc(O)c4-c4cc3ccc4O)[C@H](O)c3ccc(c(Cl)c3)Oc3cc2cc(c3O[C@@H]2O[C@H](CO)[C@@H](O)[C@H](O)[C@H]2O[C@H]2C[C@](C)(N)[C@H](O)[C@H](C)O2)Oc2ccc(cc2Cl)[C@H]1O` show?
Data returned: 1 µg/mL

Data request: Report MBC50 for `Cc1ccc(C(C)C)c(O)c1` please.
Data returned: 256 µg/mL

Data request: Using the record for `Cc1onc(-c2ccccc2)c1C(=O)N[C@@H]1C(=O)N2[C@@H]1SC(C)(C)[C@@H]2C(=O)O` , report its MBC50.
Data returned: 2 µg/mL

* * *

Provide the reported MBC of each item.
tested on: Mammaliicoccus sciuri; experiment: Bactericidal activity against methicillin-susceptible coagulase-negative Staphylococcus sciuri after 24 hrs by plate counting method; type: functional; conditions: Mammaliicoccus sciuri, 24 h
Give a bare numeral; the unit µg/mL is implied.

Data request: Endpoint output: MBC of `CC[C@H]1OC(=O)[C@H](C)[C@@H](O[C@H]2C[C@@](C)(OC)[C@@H](O)[C@H](C)O2)[C@H](C)[C@@H](O[C@@H]2O[C@H](C)C[C@H](N(C)C)[C@H]2O)[C@](C)(O)C[C@@H](C)C(=O)[C@H](C)[C@@H](O)[C@]1(C)O` . Value?
Data returned: 1

Data request: What value of MBC has been recorded for this entry: `CC(=O)NC[C@H]1CN(c2ccc(N3CCOCC3)c(F)c2)C(=O)O1`
Data returned: 0.25

Data request: Requested read-out: MBC. Entry: `Cc1onc(-c2ccccc2)c1C(=O)N[C@@H]1C(=O)N2[C@@H]1SC(C)(C)[C@@H]2C(=O)O`
Data returned: 0.25

Data request: # input molecule: `C[C@H]1COc2c(N3CCN(C)CC3)c(F)cc3c(=O)c(C(=O)O)cn1c23.C[C@H]1COc2c(N3CCN(C)CC3)c(F)cc3c(=O)c(C(=O)O)cn1c23.O` ; wanted: its MBC
Data returned: 0.5

Data request: Look up MBC: `CN(C)[C@@H]1C(O)=C(C(N)=O)C(=O)[C@@]2(O)C(O)=C3C(=O)c4c(O)cccc4[C@@](C)(O)[C@H]3C[C@@H]12`
Data returned: 1

Data request: Requested read-out: MBC. Entry: `Cc1ccc(C(C)C)c(O)c1`
Data returned: 64

Data request: So what's the measured MBC for this one? `CN[C@H](CC(C)C)C(=O)N[C@H]1C(=O)N[C@@H](CC(N)=O)C(=O)N[C@H]2C(=O)N[C@H]3C(=O)N[C@H](C(=O)N[C@H](C(=O)O)c4cc(O)cc(O)c4-c4cc3ccc4O)[C@H](O)c3ccc(c(Cl)c3)Oc3cc2cc(c3O[C@@H]2O[C@H](CO)[C@@H](O)[C@H](O)[C@H]2O[C@H]2C[C@](C)(N)[C@H](O)[C@H](C)O2)Oc2ccc(cc2Cl)[C@H]1O`
Data returned: 0.125

Data request: Requested field: MBC. Item: `CC1(C)S[C@@H]2[C@H](NC(=O)[C@H](N)c3ccccc3)C(=O)N2[C@H]1C(=O)O`
Data returned: 1

Data request: Need MBC of `COc1cc(O)c(C(=O)[C@@H]2[C@H](CC=C(C)C)C(C)=CC[C@H]2c2ccccc2)c(O)c1` , thanks.
Data returned: 0.125

* * *

tested on: Staphylococcus epidermidis; test: Antimicrobial activity against methicillin-susceptible coagulase-negative Staphylococcus epidermidis after 24 hrs by broth microdilution method; type: functional
recorded-endpoint: MIC50 (µg/mL)
Write the value in µg/mL as a bare number.

Data request: Requested read-out: MIC50. Entry: COc1cc(O)c(C(=O)[C@@H]2[C@H](CC=C(C)C)C(C)=CC[C@H]2c2ccccc2)c(O)c1 [PANDURATIN A]
Data returned: 0.5

Data request: For the compound shown here, Cc1ccc(C(C)C)c(O)c1 [THYMOL] , give the reported MIC50.
Data returned: 64

Data request: For C[C@H]1COc2c(N3CCN(C)CC3)c(F)cc3c(=O)c(C(=O)O)cn1c23.C[C@H]1COc2c(N3CCN(C)CC3)c(F)cc3c(=O)c(C(=O)O)cn1c23.O [LEVOFLOXACIN] , what is its reported MIC50?
Data returned: 0.25

Data request: Fill in: MIC50 of CC[C@H]1OC(=O)[C@H](C)[C@@H](O[C@H]2C[C@@](C)(OC)[C@@H](O)[C@H](C)O2)[C@H](C)[C@@H](O[C@@H]2O[C@H](C)C[C@H](N(C)C)[C@H]2O)[C@](C)(O)C[C@@H](C)C(=O)[C@H](C)[C@@H](O)[C@]1(C)O [ERYTHROMYCIN] is ___
Data returned: 0.5

* * *

Assign MIC90 to each entry below.
test system: Staphylococcus hominis; assay: Antimicrobial activity against methicillin-resistant coagulase-negative Staphylococcus hominis after 24 hrs by broth microdilution method; format: functional
Give the number; µg/mL is assumed, so skip it.

Data request: Fill blank: measured MIC90 of the molecule CC(=O)NC[C@H]1CN(c2ccc(N3CCOCC3)c(F)c2)C(=O)O1 [LINEZOLID] is ____.
Data returned: 2

Data request: Could you share which MIC90 value was measured for CC1(C)S[C@@H]2[C@H](NC(=O)[C@H](N)c3ccccc3)C(=O)N2[C@H]1C(=O)O [AMPICILLIN] ?
Data returned: 64

Data request: For the molecule shown here, CN[C@H](CC(C)C)C(=O)N[C@H]1C(=O)N[C@@H](CC(N)=O)C(=O)N[C@H]2C(=O)N[C@H]3C(=O)N[C@H](C(=O)N[C@H](C(=O)O)c4cc(O)cc(O)c4-c4cc3ccc4O)[C@H](O)c3ccc(c(Cl)c3)Oc3cc2cc(c3O[C@@H]2O[C@H](CO)[C@@H](O)[C@H](O)[C@H]2O[C@H]2C[C@](C)(N)[C@H](O)[C@H](C)O2)Oc2ccc(cc2Cl)[C@H]1O [VANCOMYCIN] , give the reported MIC90.
Data returned: 2

Data request: Endpoint output: MIC90 of COc1cc(O)c(C(=O)[C@@H]2[C@H](CC=C(C)C)C(C)=CC[C@H]2c2ccccc2)c(O)c1 [PANDURATIN A] . Value?
Data returned: 1

Data request: // lookup MIC90 for Cc1onc(-c2ccccc2)c1C(=O)N[C@@H]1C(=O)N2[C@@H]1SC(C)(C)[C@@H]2C(=O)O [OXACILLIN]
Data returned: 64

Data request: Quick one: MIC90 for Cc1ccc(C(C)C)c(O)c1 [THYMOL] ?
Data returned: 128

* * *

Provide the recorded MIC90 for the entries that follow.
tested on: Staphylococcus simulans; experiment: Antimicrobial activity against methicillin-resistant coagulase-negative Staphylococcus simulans after 24 hrs by broth microdilution method; type: functional
API: value field is a number in µg/mL; no unit string.

Data request: Reported MIC90 for `CC(=O)NC[C@H]1CN(c2ccc(N3CCOCC3)c(F)c2)C(=O)O1` : what is it?
Data returned: 2

Data request: // lookup MIC90 for `CC1(C)S[C@@H]2[C@H](NC(=O)[C@H](N)c3ccccc3)C(=O)N2[C@H]1C(=O)O`
Data returned: 64

Data request: Given the compound `C[C@H]1COc2c(N3CCN(C)CC3)c(F)cc3c(=O)c(C(=O)O)cn1c23.C[C@H]1COc2c(N3CCN(C)CC3)c(F)cc3c(=O)c(C(=O)O)cn1c23.O` , what is its reported MIC90?
Data returned: 4

Data request: What does the record list as MIC90 for `CN(C)[C@@H]1C(O)=C(C(N)=O)C(=O)[C@@]2(O)C(O)=C3C(=O)c4c(O)cccc4[C@@](C)(O)[C@H]3C[C@@H]12` ?
Data returned: 64

* * *

tested on: Staphylococcus epidermidis; test: Antimicrobial activity against methicillin-resistant coagulase-negative Staphylococcus epidermidis assessed as intermediate resistant isolates after 24 hrs by broth microdilution method; assay type: functional
recorded-endpoint: Activity
Please answer using a numeric value trailed by its unit.

Data request: Tell me the measured Activity of C[C@H]1COc2c(N3CCN(C)CC3)c(F)cc3c(=O)c(C(=O)O)cn1c23.C[C@H]1COc2c(N3CCN(C)CC3)c(F)cc3c(=O)c(C(=O)O)cn1c23.O [LEVOFLOXACIN] , please.
Data returned: 15%

Data request: For the compound shown here, CN(C)[C@@H]1C(O)=C(C(N)=O)C(=O)[C@@]2(O)C(O)=C3C(=O)c4c(O)cccc4[C@@](C)(O)[C@H]3C[C@@H]12 [TETRACYCLINE] , give the reported Activity.
Data returned: 7%

Data request: Item CN[C@H](CC(C)C)C(=O)N[C@H]1C(=O)N[C@@H](CC(N)=O)C(=O)N[C@H]2C(=O)N[C@H]3C(=O)N[C@H](C(=O)N[C@H](C(=O)O)c4cc(O)cc(O)c4-c4cc3ccc4O)[C@H](O)c3ccc(c(Cl)c3)Oc3cc2cc(c3O[C@@H]2O[C@H](CO)[C@@H](O)[C@H](O)[C@H]2O[C@H]2C[C@](C)(N)[C@H](O)[C@H](C)O2)Oc2ccc(cc2Cl)[C@H]1O [VANCOMYCIN] has what recorded Activity?
Data returned: 0%

Data request: Which Activity value is on record for CC[C@H]1OC(=O)[C@H](C)[C@@H](O[C@H]2C[C@@](C)(OC)[C@@H](O)[C@H](C)O2)[C@H](C)[C@@H](O[C@@H]2O[C@H](C)C[C@H](N(C)C)[C@H]2O)[C@](C)(O)C[C@@H](C)C(=O)[C@H](C)[C@@H](O)[C@]1(C)O [ERYTHROMYCIN] ?
Data returned: 15%
